Ref: paper PMC6407917

Study System: STK10 (Homo sapiens, UniProt O94804)
Sequence (O94804 whole entry): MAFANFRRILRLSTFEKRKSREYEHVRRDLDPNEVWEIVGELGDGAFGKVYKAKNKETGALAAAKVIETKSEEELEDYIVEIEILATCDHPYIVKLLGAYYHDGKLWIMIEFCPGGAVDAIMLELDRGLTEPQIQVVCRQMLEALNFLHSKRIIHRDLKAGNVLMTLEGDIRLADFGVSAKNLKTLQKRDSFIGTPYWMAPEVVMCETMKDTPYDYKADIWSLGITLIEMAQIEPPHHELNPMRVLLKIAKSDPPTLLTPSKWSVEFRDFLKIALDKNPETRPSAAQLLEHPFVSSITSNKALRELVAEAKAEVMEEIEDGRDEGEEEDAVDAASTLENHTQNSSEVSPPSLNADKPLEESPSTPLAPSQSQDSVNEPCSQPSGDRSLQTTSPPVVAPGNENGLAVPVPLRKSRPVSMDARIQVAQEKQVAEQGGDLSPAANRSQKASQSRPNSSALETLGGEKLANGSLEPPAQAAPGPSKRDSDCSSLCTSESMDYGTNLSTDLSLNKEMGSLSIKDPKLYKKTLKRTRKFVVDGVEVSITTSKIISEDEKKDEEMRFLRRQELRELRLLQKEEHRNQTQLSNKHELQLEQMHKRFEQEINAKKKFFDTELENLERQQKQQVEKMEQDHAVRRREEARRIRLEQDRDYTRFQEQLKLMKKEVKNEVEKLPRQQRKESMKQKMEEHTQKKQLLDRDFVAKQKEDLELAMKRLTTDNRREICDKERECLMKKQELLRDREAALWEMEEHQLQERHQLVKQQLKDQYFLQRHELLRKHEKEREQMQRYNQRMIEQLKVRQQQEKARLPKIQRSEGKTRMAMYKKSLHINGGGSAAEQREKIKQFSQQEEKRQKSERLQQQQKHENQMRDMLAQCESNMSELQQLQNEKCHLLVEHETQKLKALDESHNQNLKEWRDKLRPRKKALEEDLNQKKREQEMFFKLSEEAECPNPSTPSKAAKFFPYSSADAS
pIC50: −log10 of the molar value.
Attribute Measured: pIC50

test_smiles=COc1nc(N[C@H]2CC[C@H](NS(=O)(=O)CC(C)C)CC2)nc2[nH]nc(N3CCOC[C@H]3C)c12 result="≤ 4.70"

---

Study System: YWHAZ (Homo sapiens)
Sequence (P63104 whole entry): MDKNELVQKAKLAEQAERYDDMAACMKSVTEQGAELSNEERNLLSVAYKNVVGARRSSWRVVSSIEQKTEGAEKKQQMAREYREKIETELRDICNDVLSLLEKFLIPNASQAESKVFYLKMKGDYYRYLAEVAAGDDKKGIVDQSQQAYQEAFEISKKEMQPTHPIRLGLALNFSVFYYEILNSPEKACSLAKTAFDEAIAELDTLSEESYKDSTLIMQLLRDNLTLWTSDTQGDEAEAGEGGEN
Assay Notes: biochemical
Set-up: species or system HEK293/K-562/placenta mixed human extract; Kinobeads chemoproteomic competition binding, quantified by TMT LC-MS/MS, dose response up to 20 uM
Attribute Measured: IC50

molecule="COc1nc(N[C@H]2CC[C@H](NS(=O)(=O)CC(C)C)CC2)nc2[nH]nc(N3CCOC[C@H]3C)c12 [compound 39]" attribute_measured=IC50 result="≥ 20 µM"
